Test system: human B cell lymphoblastoid cell line Ramos
experimentalProtocol: Caspase cascade activation in Ramos cells
Type: cell-based
experimentalSetup: 48 h incubation, read-out: caspase potency EC50 RAMOS
// values below are reported log10(EC50)
reportedMetric: log10(EC50) (log10 of the value in µM)

[
  {
    "compound": "COc1ccc(-c2nn3c(-c4ccccc4C)nnc3s2)cc1OC",
    "targetEntity": "human B cell lymphoblastoid cell line Ramos",
    "result": -0.63
  },
  {
    "compound": "CCN(CC)c1ccc(-c2nn3c(-c4ccccc4C)nnc3s2)cc1",
    "targetEntity": "human B cell lymphoblastoid cell line Ramos",
    "result": -0.15
  },
  {
    "compound": "CCc1nn(C)c(-c2nnc3sc(-c4ccc(OC)cc4)nn23)c1Cl",
    "targetEntity": "human B cell lymphoblastoid cell line Ramos",
    "result": 0.72
  },
  {
    "compound": "CCN(CC)c1ccc(-c2nn3c(-c4ccncc4)nnc3s2)cc1",
    "targetEntity": "human B cell lymphoblastoid cell line Ramos",
    "result": -0.28
  },
  {
    "compound": "CN(C)c1ccc(-c2nn3c(-c4ccccc4Cl)nnc3s2)cc1 [Entry E1]",
    "targetEntity": "human B cell lymphoblastoid cell line Ramos",
    "result": -0.49
  },
  {
    "compound": "COc1ccc(-c2nnc3sc(-c4ccc(N(C)C)cc4)nn23)cc1OC",
    "targetEntity": "human B cell lymphoblastoid cell line Ramos",
    "result": 0.71
  },
  {
    "compound": "CCN(CC)c1ccc(-c2nn3c(-c4cccnc4)nnc3s2)cc1",
    "targetEntity": "human B cell lymphoblastoid cell line Ramos",
    "result": 0.04
  },
  {
    "compound": "COc1ccc(-c2nn3c(-c4n[nH]c5c4CCC5)nnc3s2)cc1OC",
    "targetEntity": "human B cell lymphoblastoid cell line Ramos",
    "result": 0.24
  },
  {
    "compound": "COc1ccc(-c2nn3c(-c4cc(OC)c(OC)c(OC)c4)nnc3s2)cc1OC",
    "targetEntity": "human B cell lymphoblastoid cell line Ramos",
    "result": 0.37
  },
  {
    "compound": "COc1ccc(-c2nn3c(-c4ccccc4Cl)nnc3s2)cc1OC",
    "targetEntity": "human B cell lymphoblastoid cell line Ramos",
    "result": 0.72
  },
  {
    "compound": "Cc1ccccc1-c1nnc2sc(-c3ccc(N(C)C)cc3)nn12",
    "targetEntity": "human B cell lymphoblastoid cell line Ramos",
    "result": -0.25
  },
  {
    "compound": "CCN(CC)c1ccc(-c2nn3c(-c4n[nH]c5c4CCC5)nnc3s2)cc1",
    "targetEntity": "human B cell lymphoblastoid cell line Ramos",
    "result": -0.23
  },
  {
    "compound": "COc1ccc(-c2nn3c(-c4ccccc4Cl)nnc3s2)cc1",
    "targetEntity": "human B cell lymphoblastoid cell line Ramos",
    "result": 0.01
  },
  {
    "compound": "CCN(CC)c1ccc(-c2nn3c(-c4ccccc4Cl)nnc3s2)cc1",
    "targetEntity": "human B cell lymphoblastoid cell line Ramos",
    "result": -0.24
  },
  {
    "compound": "COc1ccc(-c2nn3c(-c4ccc(Cl)cc4Cl)nnc3s2)cc1OC",
    "targetEntity": "human B cell lymphoblastoid cell line Ramos",
    "result": 0.76
  },
  {
    "compound": "COc1cc(-c2nnc3sc(-c4ccco4)nn23)cc(OC)c1OC",
    "targetEntity": "human B cell lymphoblastoid cell line Ramos",
    "result": -0.62
  },
  {
    "compound": "COc1cc(-c2nnc3sc(-c4ccc(C)c(C)c4)nn23)cc(OC)c1OC",
    "targetEntity": "human B cell lymphoblastoid cell line Ramos",
    "result": -0.50
  }
]
